# System: HS 578T breast
# experimental_details: NCI-60 one-dose screen, 48 h (100 = growth as untreated, 0 = no growth, -100 = all killed)
# test_parameters: 10 µM unless noted
Compounds without any hit were thinned out: in the full panel of roughly 83,000, 20% have a hit.
growth values for the compounds below.
// return numeric value only (unit: %, not printed)

Known growth results, listed for orientation:
• N#Cc1nc(C#N)c(Sc2ccccc2)c(Sc2ccccc2)c1Sc1ccccc1 = 55.2
• COc1ccc(-c2nc(SCCC(C)C)nc(N/N=C\c3cccc(Cl)c3)c2C#N)cc1 = 20.7
• NCCCNc1nc2ccccc2c2c(=O)c3cccc(Cl)c3sc12 = 28.1
• COc1ccc2c(c1)O/C(=C\c1cccc(OCC(=O)Nc3nc(C)c(C)s3)c1)C2=O = 42.9
• Cn1c(=O)c2[nH]c(NN)nc2n(C)c1=O = 122

### Prompt So what does the record say about growth for Cc1c(C(=O)OC(=NC2CCCCC2)NC2CCCCC2)sc2c1c(=O)nc1c(C#N)n[nH]n12 ?
### Response 104

### Prompt Subsequent entry: FC(F)(F)c1cc(Nc2ccc3cc(OCCCN4CCOCC4)ccc3n2)ccc1Cl
### Response 6.22

### Prompt Subsequent entry: Cc1ccc(-c2cc(-c3ccccc3C)[nH]c(=O)c2C#N)s1
### Response 82.8

### Prompt Subsequent entry: N/C(=N/N=C/c1ccccc1)N/N=C\c1ccccc1
### Response 67.7

### Prompt Subsequent entry: O=C(/C=C/c1cccc(O)c1)c1cccc(-n2cc(-c3ccc4ccccc4c3)[nH]c2=O)c1
### Response -11

Entry source: PubChem BioAssay (NCI)
